Target: MAP kinase-activated protein kinase 5 (Homo sapiens) (UniProt Q8IW41)
Sequence (Q8IW41 whole entry): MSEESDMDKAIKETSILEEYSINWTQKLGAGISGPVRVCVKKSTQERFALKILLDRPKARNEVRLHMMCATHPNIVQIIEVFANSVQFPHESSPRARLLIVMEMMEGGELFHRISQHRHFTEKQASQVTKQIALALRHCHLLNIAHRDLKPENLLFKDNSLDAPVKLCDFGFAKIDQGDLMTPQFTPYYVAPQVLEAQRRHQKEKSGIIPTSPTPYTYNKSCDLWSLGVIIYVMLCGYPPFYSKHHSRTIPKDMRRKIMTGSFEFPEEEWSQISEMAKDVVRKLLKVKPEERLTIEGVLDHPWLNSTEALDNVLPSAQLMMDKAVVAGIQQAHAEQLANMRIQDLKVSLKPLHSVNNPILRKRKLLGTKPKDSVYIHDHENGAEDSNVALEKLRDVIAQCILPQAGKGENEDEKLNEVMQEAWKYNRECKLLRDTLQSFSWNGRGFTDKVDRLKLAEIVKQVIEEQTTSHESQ
Assay: Inhibition of PRAK1 at 30 uM by microfluidic mobility shift assay
inhibition reference
Expressed in %, but write only the number.

Take a look at these entries with their results.
| ITEM SMILES | UNIT INFO | inhibition |
| --- | --- | --- |
| CC(=O)Nc1nn(C)c2cc(-c3ccc(N4CCN(C)CC4)cc3)[nH]c(=O)c12 | % | 6 |
| Nc1n[nH]c2cc(-c3ccccn3)[nH]c(=O)c12 | % | 18 |
| Nc1n[nH]c2c3c([nH]c(=O)c12)CCCC3 | % | 0 |
| COc1cccc(-c2cc3[nH]nc(N)c3c(=O)[nH]2)c1 | % | 10 |
| Nc1n[nH]c2cc(-c3ccc(N4CCOCC4)cc3)[nH]c(=O)c12 | % | 11 |
| Nc1c2cnc(-c3ccccc3)cc2nn1-c1ccccc1 | % | 2 |
| Cc1cc2[nH]nc(N)c2cn1 | % | 13 |
| CC(C)(C)c1cc2nn(-c3ccccc3)c(N)c2c(=O)[nH]1 | % | 2 |
| O=S(=O)(NCCNC/C=C/c1ccc(Br)cc1)c1cccc2cnccc12 | % | 37 |
| Cc1cc2c(c(NS(C)(=O)=O)nn2C)c(=O)[nH]1 | % | 0 |

input: Which inhibition is listed for `Nc1n[nH]c2cc(-c3cccs3)[nH]c(=O)c12` ?
output: 12

input: Try `COc1cccc(-c2cc3c(c(N)nn3C)c(=O)[nH]2)c1` next.
output: 6
